Assay: chemical genetic growth profiling, strain panel (AID 1159580);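 further: tested at 20 µM; growth read once vehicle control cultures reached saturation at 30 °C; lower values mean less growth of the strain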
Settings: S. cerevisiae deletion strains, growth OD, locus YGL173C, strain kem1
Out of some 5,500 compounds screened, about 2,000 (36%) were called active. Not shown: some 18% with an inconclusive outcome. No stated cut-off is given here; in the data, active means normalized growth mostly below about 0.91 (no sharp cut-off); inconclusive means no clear call, values can overlap the other calls; inactive means mostly above about 0.92. This is one part of the list.
Outcome codes: active, inactive

>  <Compound>
CCCCCC(C)N (centres undefined)

>  <Class Name>
inactive

$$$$
>  <Compound>
COc1ccc(C(=O)c2ccccc2O)c(O)c1

>  <Class Name>
active

$$$$
>  <Compound>
OCCN(CCO)c1nc(N2CCCCC2)c2nc(N(CCO)CCO)nc(N3CCCCC3)c2n1

>  <Class Name>
inactive

$$$$
>  <Compound>
CNc1ccccc1C(=O)N1CCc2c([nH]c3ccccc23)C1=O

>  <Class Name>
inactive

$$$$
>  <Compound>
COc1ccc2c(c1)OC[C@@H](Cc1ccc(OC)c(OC)c1)[C@H]2O

>  <Class Name>
inactive

$$$$
>  <Compound>
CCc1ccc(CCOc2ccc(CC3SC(=O)NC3=O)cc2)nc1 (centres undefined)

>  <Class Name>
inactive

$$$$
>  <Compound>
COc1ccc(C(=O)c2ccccc2)c(O)c1

>  <Class Name>
active

$$$$
>  <Compound>
CC(C)CC1C(=O)N2CCC[C@H]2C2(O)O[C@](NC(=O)C3C=C4c5cccc6[nH]c(Br)c(c56)C[C@H]4N(C)C3)(C(C)C)C(=O)N12 (some centres undefined)

>  <Class Name>
inactive

$$$$
>  <Compound>
CCC1(c2ccccc2)C(=O)NCNC1=O

>  <Class Name>
inactive

$$$$
>  <Compound>
NC/C=C/C(=O)O

>  <Class Name>
inactive

$$$$
>  <Compound>
COc1cc(OC)c2c(c1)O[C@H](c1ccc(OC)c(OC)c1)[C@@H](O)C2

>  <Class Name>
inactive

$$$$
>  <Compound>
CCCCCCCCCCCCCCCCOP(=O)([O-])OCC[N+](C)(C)C

>  <Class Name>
active

$$$$
>  <Compound>
O=[N+]([O-])O[C@H]1CO[C@H]2[C@@H]1OC[C@H]2O[N+](=O)[O-]

>  <Class Name>
inactive

$$$$
>  <Compound>
OCC(O)Cc1ccc2c(c1)OCO2 (centres undefined)

>  <Class Name>
inactive

$$$$
>  <Compound>
CN1C2CC3C[C@H]1C(O3)C2O (some centres undefined)

>  <Class Name>
inactive

$$$$
>  <Compound>
NCC1CCCCC1CC(=O)O (centres undefined)

>  <Class Name>
inactive

$$$$
>  <Compound>
COC(=O)C1[C@H]2C[C@H]3c4[nH]c5ccccc5c4CCN3C[C@@H]2CC[C@@H]1O (some centres undefined)

>  <Class Name>
inactive

$$$$
>  <Compound>
O=C(O)COc1cc(Cl)c(Cl)cc1Cl

>  <Class Name>
inactive

$$$$
>  <Compound>
CCCCCCCCCCCCC[N+](C)(C)Cc1ccccc1

>  <Class Name>
active

$$$$
>  <Compound>
COc1ccc(-c2cc(=O)c3c(O)cc(OC)c(OC)c3o2)c(OC)c1

>  <Class Name>
inactive

$$$$
>  <Compound>
CCCCOc1ccc(CC(=O)NO)cc1

>  <Class Name>
inactive

$$$$
>  <Compound>
CC(=O)OCC(CCn1cnc2cnc(N)nc21)COC(C)=O

>  <Class Name>
inactive

$$$$
>  <Compound>
C=C1CC[C@H](O)C/C1=C/C=C1\CCC[C@]2(C)C([C@H](C)/C=C/[C@H](C)C(C)C)CC[C@@H]12 (some centres undefined)

>  <Class Name>
inactive

$$$$
>  <Compound>
C=CCc1ccc2c(c1)OCO2

>  <Class Name>
inactive

$$$$

Source listed as PubChem BioAssay AID1159580.
